Provenance of the data: the RNAGym collection of RNA variant scans (doi:10.1126/science.aae0568)

B1: tRNA (parent)
chain: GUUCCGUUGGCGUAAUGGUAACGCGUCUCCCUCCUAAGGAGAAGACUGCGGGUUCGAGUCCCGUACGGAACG

- Variants of: B1
- TEST_PROTOCOL: yeast fitness relative to wild type (ratio to wild type); higher = fitter; tRNA-Arg(CCU), competitive growth, 37 C, YPD
This sample holds only a part of the variants without activity.
Could you please report measured yeast fitness for the items listed next?
One number for each entry.

Consider the following illustrative entries.
CHANGE: G9A A21U
yeast fitness: 0.693

CHANGE: U7C U32G
yeast fitness: 0.576

CHANGE: C24A C29A G44A C46G G50A A65U
yeast fitness: 0.556

CHANGE: G44A C46U A69C
yeast fitness: 0.996

CHANGE: U19A A57G
yeast fitness: 0.931

CHANGE: U8C U19C
yeast fitness: 0.978

Provide reported yeast fitness for each item, in the same order as listed.
1. C11U U16C C24U
2. A42U A43C

1. 0.591
2. 0.994

Provide reported yeast fitness for each item, in the same order as listed.
1. U7C A21G
2. U2A G23A C29G A70U
3. U2A C61U A70C

0.761
0.541
0.585
